Would you kindly list CTG-3D luminescence at 96 h for each of these molecules?
# Test system: HCI-008 (organoid from a HER2-enriched breast cancer xenograft)
# test.details: CTG-3D luminescence at 96 h relative to day-0 seeding control (ratio to day 0); higher = more growth / less cytotoxicity; PDxO 3D drug screen (set 2), 96 h, CTG-3D normalised to day-0 seeding control.
# stated.conditions: 100 µM; days in culture: 382

State recorded CTG-3D luminescence at 96 h for all listed molecules.
1. CC(=O)O[C@@]12CO[C@@H]1C[C@H](O)[C@@]1(C)C(=O)[C@H](O)C3=C(C)[C@@H](OC(=O)[C@H](O)[C@@H](NC(=O)OC(C)(C)C)c4ccccc4)C[C@@](O)([C@@H](OC(=O)c4ccccc4)[C@H]21)C3(C)C
2. CCOc1ccn(-c2ccc(F)cc2)c(=O)c1C(=O)Nc1ccc(Oc2ccnc(N)c2Cl)c(F)c1
3. Cc1c(CN2CCN(C(=O)[C@H](C)O)CC2)sc2c(N3CCOCC3)nc(-c3cnc(N)nc3)nc12
4. C[C@@H](Nc1cc(F)cc(F)c1)c1cc(C(=O)N(C)C)cc2c(=O)cc(N3CCOCC3)oc12
5. COc1cccc2c1C(=O)c1c(O)c3c(c(O)c1C2=O)C[C@@](O)(C(=O)CO)C[C@@H]3O[C@H]1C[C@H](N)[C@@H](O)[C@H](C)O1 [epirubicin]

Reply text:
[0.0143, 0.377, 0.331, 0.193, -0.000657]
